# Test system: RPMI-8226 (Plasma Cell Myeloma);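 also: after 72 h of two-drug dosing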
# Assay info: Bliss excess, mean over the matrix (fraction); higher = more synergy
Measure: Bliss excess

Consider C[C@@H](c1ccc2nccn2c1)n1nnc2ncc(-c3cnn(C)c3)nc21 [Savolitinib] + CC1(C)CCC(CN2CCN(c3ccc(C(=O)NS(=O)(=O)c4ccc(NCC5CCOCC5)c([N+](=O)[O-])c4)c(Oc4cnc5[nH]ccc5c4)c3)CC2)=C(c2ccc(Cl)cc2)C1 [Venetoclax] (first compound max 1 µM, 7x7, partner max 1 µM) . Its measured Bliss excess is -0.0456

Consider Cc1c2c(nn1C)CSCc1cc(n(C)n1)CSc1cc(c3ccccc3c1)OCCCc1c(C(=O)O)n(C)c3c-2c(Cl)ccc13 [AZD5991] + C[C@@H]1COCCN1C2=NC(=NC(=C2)C3(CC3)[S@](=N)(=O)C)C4=C5C=CNC5=NC=C4 [AZD6738] (first compound max 1 µM, 7x7, partner max 10 µM) . Its measured Bliss excess is 0.008

Consider CN(C)CCCOc1ccc(-c2ccc3ncc4c(c3c2)n(C2CCOCC2)c(=O)n4C)cn1 [AZD0156] + C[C@@H]1COCCN1C2=NC(=NC(=C2)C3(CC3)[S@](=N)(=O)C)C4=C5C=CNC5=NC=C4 [AZD6738] (first compound max 1 µM, 7x7, partner max 10 µM) . Its measured Bliss excess is 0.102

Consider COc1cccc(OCCCN)c1-c1cc(Nc2cnc(C#N)cn2)n[nH]1 [Prexasertib] + C[C@@H]1COCCN1C2=NC(=NC(=C2)C3(CC3)[S@](=N)(=O)C)C4=C5C=CNC5=NC=C4 [AZD6738] (first compound max 1 µM, 7x7, partner max 10 µM) . Its measured Bliss excess is -0.006
